# Tgt: Sodium- and chloride-dependent betaine transporter (Homo sapiens, UniProt P48065)
# Sequence (P48065 whole entry, looked up): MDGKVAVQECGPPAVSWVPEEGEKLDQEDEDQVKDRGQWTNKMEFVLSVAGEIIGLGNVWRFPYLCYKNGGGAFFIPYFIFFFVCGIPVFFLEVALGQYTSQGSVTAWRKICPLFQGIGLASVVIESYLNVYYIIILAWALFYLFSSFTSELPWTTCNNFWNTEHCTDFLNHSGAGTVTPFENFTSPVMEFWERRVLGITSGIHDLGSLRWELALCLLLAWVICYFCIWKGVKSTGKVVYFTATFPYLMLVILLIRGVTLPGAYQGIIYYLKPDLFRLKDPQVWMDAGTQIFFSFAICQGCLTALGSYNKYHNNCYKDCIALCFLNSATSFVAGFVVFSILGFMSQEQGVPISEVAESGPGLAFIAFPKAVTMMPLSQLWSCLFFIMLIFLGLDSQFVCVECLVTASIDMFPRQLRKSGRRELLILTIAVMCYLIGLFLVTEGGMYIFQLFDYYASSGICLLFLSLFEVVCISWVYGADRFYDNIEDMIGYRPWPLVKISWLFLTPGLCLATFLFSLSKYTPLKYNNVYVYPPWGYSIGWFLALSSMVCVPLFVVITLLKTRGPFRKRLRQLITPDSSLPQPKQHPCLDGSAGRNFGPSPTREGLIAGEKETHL
# Assay Details: Inhibition of human BGT1/human GAT3 chimera C expresses in tsA201 cells assessed as reduction in [3H]GABA uptake after 3 mins by scintillation counting method
# Assay type: cell-based
Measure: pIC50
Schema: pIC50 number; meaning minus log10 of the concentration expressed in molar units.

Query: // lookup pIC50 | system=Sodium- and chloride-dependent betaine transporter (Homo sapiens, UniProt P48065) | key= "O=C(NC1CCN(Cc2ccccc2)CC1)c1ccc(Cl)cc1Cl"
Response: 4.24

====

pIC50 reference
# Tgt: Sodium- and chloride-dependent GABA transporter 3 (Homo sapiens, UniProt P48066)
# Sequence (P48066 whole entry): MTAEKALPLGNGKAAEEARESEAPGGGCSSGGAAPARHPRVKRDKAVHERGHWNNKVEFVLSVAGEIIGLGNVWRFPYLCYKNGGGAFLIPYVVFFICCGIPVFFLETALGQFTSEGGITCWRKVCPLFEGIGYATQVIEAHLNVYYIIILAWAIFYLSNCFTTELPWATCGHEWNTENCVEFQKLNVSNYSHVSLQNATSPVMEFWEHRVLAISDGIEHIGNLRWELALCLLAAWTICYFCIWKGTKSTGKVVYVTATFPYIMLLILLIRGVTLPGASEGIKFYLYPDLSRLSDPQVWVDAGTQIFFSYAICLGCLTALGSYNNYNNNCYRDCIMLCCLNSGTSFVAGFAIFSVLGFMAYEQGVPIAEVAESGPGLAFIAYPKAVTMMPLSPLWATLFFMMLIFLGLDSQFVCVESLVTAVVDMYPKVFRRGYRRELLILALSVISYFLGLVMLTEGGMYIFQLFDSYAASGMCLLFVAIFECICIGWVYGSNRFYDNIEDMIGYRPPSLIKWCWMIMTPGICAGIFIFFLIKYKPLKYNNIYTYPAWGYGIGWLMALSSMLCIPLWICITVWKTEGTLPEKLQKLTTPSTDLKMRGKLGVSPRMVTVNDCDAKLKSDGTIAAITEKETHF
# Assay Details: Inhibition of human GAT3 expresses in tsA201 cells assessed as reduction in [3H]GABA uptake after 3 mins by scintillation counting method
# Assay type: cell-based
pIC50: −log10 of the molar value.

O=C(NC1CCN(Cc2ccccc2)CC1)c1ccc(Cl)cc1Cl < 4.00
O=C(NC1CCN(Cc2ccccc2)CC1)c1ccc2c(c1)OCO2 < 4.00

Next item in the queue.
Query: Param item = "O=C(NC1CCN(Cc2ccccc2)CC1)c1ccc2ccccc2c1" ; retrieve measured pIC50.
Response: < 4.00

====

# Tgt: Sodium- and chloride-dependent betaine transporter (Homo sapiens, UniProt P48065, F295Y)
# Sequence (P48065 whole entry F295Y): as the sequence (P48065 whole entry, looked up) above, with F295Y counted along it
# Assay Details: Inhibition of human BGT1 F295Y mutant expressed in tsA201 cells assessed as reduction in [3H]GABA uptake after 3 mins by scintillation counting method
# Assay type: cell-based
# Applied Conditions: read-out: IC50
Measure: IC50 (µM)
Only the number, expressed in µM, is required.

Query: Param item = "O=C(NC1CCN(Cc2ccccc2)CC1)c1ccc(Cl)cc1Cl" ; retrieve measured IC50.
Response: 5

====

# Tgt: Sodium- and chloride-dependent GABA transporter 1 (Mus musculus, UniProt P31648)
# Assay Details: Inhibition of mouse GAT1 expressed in hamster BHK cells assessed as reduction in [3H]GABA uptake after 3 mins by scintillation counting method
# Applied Conditions: read-out: Ki(app)
Measure: Ki (µM)
Only the number, expressed in µM, is required.

Query: Param item = "COc1ccccc1C1(O)CCN(CCCn2c3ccccc3c3ccccc32)CC1" ; retrieve measured Ki.
Response: 19
